# Test system: NCI-H196 complex spheroids with HUVEC/MSC, growth % T/C
# PROCEDURE_TEXT: Anticancer human tumor NCI-H196 cell line growth inhibition [Asc];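 also: spheroids exposed to compound for 7 days before measurement; 100% = DMSO vehicle control wells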
# RUN_PARAMETERS: second compound 0.316 µM; first compound 3 µM; active compounds read low
METRIC: viability, T/C (%)
Report the figure in % without appending any unit label.

[[record]]
compound = "CCN1C(C(=O)NC23CCC(C(=O)O)(CC2)CC3)C(c2cccc(Cl)c2F)C2(C(=O)Nc3cc(Cl)ccc32)C12CCCCC2 (centres undefined) + Cc1c(S(C)(=O)=O)c(-c2cc(F)cc(N3CCN(c4ccc(NS(=O)(=O)c5ccc(NC(CCN6CCC(C(=O)OCCCP(=O)(O)O)CC6)CSc6ccccc6)c(S(=O)(=O)C(F)(F)F)c5)cc4)CC3)c2)c(-c2ccc(Cl)cc2)n1C(C)C"
system_tested = "NCI-H196 complex spheroids with HUVEC/MSC, growth % T/C"
metric = "viability, T/C"
reported_measurement = 69.4

[[record]]
compound = "Cc1nc(N2CCC3(CC2)COC(C)C3N)c(CO)nc1Sc1ccnc(N)c1Cl (centres undefined) + CNC(C)C(=O)NC1CN(S(=O)(=O)c2cccc(S(=O)(=O)N3CCC4CCC(C(=O)NC(c5ccccc5)c5ccccc5)N4C(=O)C(NC(=O)C(C)NC)C3)c2)CCC2CCC(C(=O)NC(c3ccccc3)c3ccccc3)N2C1=O"
system_tested = "NCI-H196 complex spheroids with HUVEC/MSC, growth % T/C"
metric = "viability, T/C"
reported_measurement = 3.1

[[record]]
compound = "CCN1C(C(=O)NC23CCC(C(=O)O)(CC2)CC3)C(c2cccc(Cl)c2F)C2(C(=O)Nc3cc(Cl)ccc32)C12CCCCC2 (centres undefined) + CNC(C)C(=O)NC1CN(S(=O)(=O)c2cccc(S(=O)(=O)N3CCC4CCC(C(=O)NC(c5ccccc5)c5ccccc5)N4C(=O)C(NC(=O)C(C)NC)C3)c2)CCC2CCC(C(=O)NC(c3ccccc3)c3ccccc3)N2C1=O"
system_tested = "NCI-H196 complex spheroids with HUVEC/MSC, growth % T/C"
metric = "viability, T/C"
reported_measurement = 1.45


# viability, T/C (compound: Cc1nc(N2CCC3(CC2)COC(C)C3N)c(CO)nc1Sc1ccnc(N)c1Cl (centres undefined) + Cc1c(S(C)(=O)=O)c(-c2cc(F)cc(N3CCN(c4ccc(NS(=O)(=O)c5ccc(NC(CCN6CCC(C(=O)OCCCP(=O)(O)O)CC6)CSc6ccccc6)c(S(=O)(=O)C(F)(F)F)c5)cc4)CC3)c2)c(-c2ccc(Cl)cc2)n1C(C)C ) is 24

----------
Let's look at some compounds and their measured viability, T/C.
# Tested on: NCI-H196 complex spheroids with HUVEC/MSC, growth % T/C
# PROCEDURE_TEXT: Anticancer human tumor NCI-H196 cell line growth inhibition [Asc];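 also: spheroids exposed to compound for 7 days before measurement; 100% = DMSO vehicle control wells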
# RUN_PARAMETERS: second compound 0.0316 µM; first compound 1 µM; active compounds read low
// note: answer is a bare numeric in %

Some entries whose results are on file:
[[record]]
compound = "C#Cc1c(F)ccc2cc(O)cc(-c3ncc4c(N5CC6CCC(C5)N6)nc(OCC56CCCN5CC(F)C6)nc4c3F)c12 (stereo unspecified) + CNC(C)C(=O)NC1CN(S(=O)(=O)c2cccc(S(=O)(=O)N3CCC4CCC(C(=O)NC(c5ccccc5)c5ccccc5)N4C(=O)C(NC(=O)C(C)NC)C3)c2)CCC2CCC(C(=O)NC(c3ccccc3)c3ccccc3)N2C1=O"
quantity_unit = "%"
reported_measurement = 3.76

[[record]]
compound = "CCN1CCN(Cc2ccc(Nc3ncc(F)c(-c4cc(F)c5nc(C)n(C(C)C)c5c4)n3)nc2)CC1 + CNC(C)C(=O)NC1CN(S(=O)(=O)c2cccc(S(=O)(=O)N3CCC4CCC(C(=O)NC(c5ccccc5)c5ccccc5)N4C(=O)C(NC(=O)C(C)NC)C3)c2)CCC2CCC(C(=O)NC(c3ccccc3)c3ccccc3)N2C1=O"
quantity_unit = "%"
reported_measurement = 5.07

[[record]]
compound = "C=C(F)C(=O)N1CCN(c2nc(OCC3CCCN3C)nc3c2CCN(c2cccc4cccc(Cl)c24)C3)CC1CC#N (stereo unspecified) + CNC(C)C(=O)NC1CN(S(=O)(=O)c2cccc(S(=O)(=O)N3CCC4CCC(C(=O)NC(c5ccccc5)c5ccccc5)N4C(=O)C(NC(=O)C(C)NC)C3)c2)CCC2CCC(C(=O)NC(c3ccccc3)c3ccccc3)N2C1=O"
quantity_unit = "%"
reported_measurement = 3.88


get_value(item= COc1c(OCCCN2CCOCC2)ccc2c3n(c(=NC(=O)c4cnc(N)nc4)nc12)CCN3 + CNC(C)C(=O)NC1CN(S(=O)(=O)c2cccc(S(=O)(=O)N3CCC4CCC(C(=O)NC(c5ccccc5)c5ccccc5)N4C(=O)C(NC(=O)C(C)NC)C3)c2)CCC2CCC(C(=O)NC(c3ccccc3)c3ccccc3)N2C1=O , readout=viability, T/C) returns 9.69

The compound identified as O=C(c1ccc(F)c(F)c1Nc1ccc(I)cc1F)N1CC(O)([C@@H]2CCCCN2)C1 + CNC(C)C(=O)NC1CN(S(=O)(=O)c2cccc(S(=O)(=O)N3CCC4CCC(C(=O)NC(c5ccccc5)c5ccccc5)N4C(=O)C(NC(=O)C(C)NC)C3)c2)CCC2CCC(C(=O)NC(c3ccccc3)c3ccccc3)N2C1=O registered its viability, T/C at 7.48

// viability, T/C value for C=CC(=O)N1CCN(c2nc(=O)n(-c3c(C)ccnc3C(C)C)c3nc(-c4c(O)cccc4F)c(F)cc23)C(C)C1 (stereo unspecified) + CNC(C)C(=O)NC1CN(S(=O)(=O)c2cccc(S(=O)(=O)N3CCC4CCC(C(=O)NC(c5ccccc5)c5ccccc5)N4C(=O)C(NC(=O)C(C)NC)C3)c2)CCC2CCC(C(=O)NC(c3ccccc3)c3ccccc3)N2C1=O : 8.69

----------
# System: NCI-H196 complex spheroids with HUVEC/MSC, growth % T/C
# PROCEDURE_TEXT: Anticancer human tumor NCI-H196 cell line growth inhibition [Asc];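 also: spheroids exposed to compound for 7 days before measurement; 100% = DMSO vehicle control wells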
# RUN_PARAMETERS: second compound 0.3 µM; first compound 0.01 µM; active compounds read low
# Source text: Multicellular complex tumor spheroid response to apoptosis pathway targeting inhibitors Alrizomadlin, Pelcitoclax, and Dasminapant in combination with a variety of drugs and investigational agents in selected tumor cell lines […] Compounds. […] If the clinical Cmax for an agent had not been determined, the highest concentration tested was 10 microM. […]
Each item that follows carries a reported viability, T/C.
Express your answer in %, writing the number without its unit.

[[record]]
compound = "CNC(C)C(=O)NC1CN(S(=O)(=O)c2cccc(S(=O)(=O)N3CCC4CCC(C(=O)NC(c5ccccc5)c5ccccc5)N4C(=O)C(NC(=O)C(C)NC)C3)c2)CCC2CCC(C(=O)NC(c3ccccc3)c3ccccc3)N2C1=O (stereo unspecified) + CCN1C(C(=O)NC23CCC(C(=O)O)(CC2)CC3)C(c2cccc(Cl)c2F)C2(C(=O)Nc3cc(Cl)ccc32)C12CCCCC2"
reported_measurement = 16.6


// sample NC1CCC(NC2CC2c2ccccc2)CC1 (stereo unspecified) + CCN1C(C(=O)NC23CCC(C(=O)O)(CC2)CC3)C(c2cccc(Cl)c2F)C2(C(=O)Nc3cc(Cl)ccc32)C12CCCCC2 , its viability, T/C was 105

Measured viability, T/C, O=C(c1ccc(F)c(F)c1Nc1ccc(I)cc1F)N1CC(O)([C@@H]2CCCCN2)C1 + CCN1C(C(=O)NC23CCC(C(=O)O)(CC2)CC3)C(c2cccc(Cl)c2F)C2(C(=O)Nc3cc(Cl)ccc32)C12CCCCC2 : 114

compound COc1c(OCCCN2CCOCC2)ccc2c3n(c(=NC(=O)c4cnc(N)nc4)nc12)CCN3 + CCN1C(C(=O)NC23CCC(C(=O)O)(CC2)CC3)C(c2cccc(Cl)c2F)C2(C(=O)Nc3cc(Cl)ccc32)C12CCCCC2 , viability, T/C observed: 102

Lab note: CCN1CCN(Cc2ccc(Nc3ncc(F)c(-c4cc(F)c5nc(C)n(C(C)C)c5c4)n3)nc2)CC1 + CCN1C(C(=O)NC23CCC(C(=O)O)(CC2)CC3)C(c2cccc(Cl)c2F)C2(C(=O)Nc3cc(Cl)ccc32)C12CCCCC2 gave viability, T/C of 128

Reported viability, T/C ( Cn1ncnc1[C@H]1c2n[nH]c(=O)c3cc(F)cc(c23)N[C@@H]1c1ccc(F)cc1 + CCN1C(C(=O)NC23CCC(C(=O)O)(CC2)CC3)C(c2cccc(Cl)c2F)C2(C(=O)Nc3cc(Cl)ccc32)C12CCCCC2 ) = 121

----------
# Test system: NCI-H196 complex spheroids with HUVEC/MSC, growth % T/C
# PROCEDURE_TEXT: Anticancer human tumor NCI-H196 cell line growth inhibition [Asc]; active = viability on the fitted dose curve at most 10% of control; inactive = the rest;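 also: spheroids exposed to compound for 7 days before measurement; 100% = DMSO vehicle control wells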
# RUN_PARAMETERS: second compound 0.316 µM; first compound 0.1 µM
Entry note: the call must match one of true (active), false (inactive)

// param item: O=C(c1cc(Cc2n[nH]c(=O)c3ccccc23)ccc1F)N1CCN(C(=O)C2CC2)CC1 + Cc1c(S(C)(=O)=O)c(-c2cc(F)cc(N3CCN(c4ccc(NS(=O)(=O)c5ccc(NC(CCN6CCC(C(=O)OCCCP(=O)(O)O)CC6)CSc6ccccc6)c(S(=O)(=O)C(F)(F)F)c5)cc4)CC3)c2)c(-c2ccc(Cl)cc2)n1C(C)C ; yields the recorded call
false

// return assay outcome for C=C(F)C(=O)N1CCN(c2nc(OCC3CCCN3C)nc3c2CCN(c2cccc4cccc(Cl)c24)C3)CC1CC#N (centres undefined) + CNC(C)C(=O)NC1CN(S(=O)(=O)c2cccc(S(=O)(=O)N3CCC4CCC(C(=O)NC(c5ccccc5)c5ccccc5)N4C(=O)C(NC(=O)C(C)NC)C3)c2)CCC2CCC(C(=O)NC(c3ccccc3)c3ccccc3)N2C1=O
true

Which outcome was entered for the molecule NC1CCC(NC2CC2c2ccccc2)CC1 (centres undefined) + CNC(C)C(=O)NC1CN(S(=O)(=O)c2cccc(S(=O)(=O)N3CCC4CCC(C(=O)NC(c5ccccc5)c5ccccc5)N4C(=O)C(NC(=O)C(C)NC)C3)c2)CCC2CCC(C(=O)NC(c3ccccc3)c3ccccc3)N2C1=O in this test?
true

Short answer needed: outcome of this test for C=CC(=O)N1CCN(c2nc(=O)n(-c3c(C)ccnc3C(C)C)c3nc(-c4c(O)cccc4F)c(F)cc23)C(C)C1 (centres undefined) + Cc1c(S(C)(=O)=O)c(-c2cc(F)cc(N3CCN(c4ccc(NS(=O)(=O)c5ccc(NC(CCN6CCC(C(=O)OCCCP(=O)(O)O)CC6)CSc6ccccc6)c(S(=O)(=O)C(F)(F)F)c5)cc4)CC3)c2)c(-c2ccc(Cl)cc2)n1C(C)C ?
false
